Each record here notes measured Percent Effect.
# Measured On: Sialic acid-binding Ig-like lectin 9 (Homo sapiens) (UniProt Q9Y336)
# Sequence (Q9Y336 whole entry): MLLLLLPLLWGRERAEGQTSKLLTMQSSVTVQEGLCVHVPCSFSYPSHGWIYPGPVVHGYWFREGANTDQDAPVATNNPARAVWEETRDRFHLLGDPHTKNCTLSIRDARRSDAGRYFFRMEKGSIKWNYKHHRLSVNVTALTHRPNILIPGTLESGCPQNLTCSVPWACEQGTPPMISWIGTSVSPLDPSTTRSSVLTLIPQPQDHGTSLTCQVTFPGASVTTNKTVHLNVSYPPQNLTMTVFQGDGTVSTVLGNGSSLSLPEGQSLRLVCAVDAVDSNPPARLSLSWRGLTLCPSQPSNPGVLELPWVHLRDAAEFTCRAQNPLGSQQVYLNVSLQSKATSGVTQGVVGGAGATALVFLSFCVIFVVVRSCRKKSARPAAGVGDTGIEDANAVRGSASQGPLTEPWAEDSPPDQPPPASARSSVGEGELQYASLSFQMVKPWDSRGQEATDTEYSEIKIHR
# Assay Details: Hs-Siglec9 ALPHAscreen SOP 20170721
# Set-up: scale not given: direction of the effect not stated beside the values
# Stated Conditions: 10 µM
Response body: numeric value in %, unit text excluded.

Ask | Give Sialic acid-binding Ig-like lectin 9 (Homo sapiens) (UniProt Q9Y336) Percent Effect for CC(Cn1cncn1)NCc1nncn1C1CCCCC1 (stereo not given)
Reply | 13.3

Now look at this entry.
Ask | Recall the recorded Percent Effect for `COc1cccc(CN(C)C(=O)CN2CCN(CCO)CC2)c1` with Sialic acid-binding Ig-like lectin 9 (Homo sapiens) (UniProt Q9Y336) and state it.
Reply | 1.75

---

# Test system: Trypanosoma cruzi
# Assay Details: Trypanosoma cruzi phosphomannomutase and mannose-1-phosphate guanylyltransferase assay
# Format: functional
# Parameters: scale not given: direction of the effect not stated beside the values
# Stated Conditions: 10 µM
This section presents compounds with their documented Percent Effect values.
Response body: numeric value in %, unit text excluded.

See these solved cases before continuing.
Ask | What measured Percent Effect goes with COc1ccc(C2CCCN2C(=O)CCNc2ncccn2)cc1 (configuration not stated) ?
Reply | -1.57

Ask | Bench note: what Percent Effect did COCC(=O)N1Cc2cn(C)nc2C(COc2cccnc2)C1 (configuration not stated) show?
Reply | -0.493

Ask | Using the record for CC(Cn1ccnc1)NC(=O)NCCNC(=O)C(C)C (configuration not stated) , report its Percent Effect.
Reply | 0.94

More entries:
Ask | Endpoint output: Percent Effect of `O=C(c1ncccn1)N1C[C@H]2CCC[C@@]2(COCc2ccncc2)C1` . Value?
Reply | 4.63

Ask | Entry COc1ncccc1C(=O)N1CCCC(c2cc(C)[nH]n2)C1 (configuration not stated) has what Percent Effect?
Reply | -0.66

Ask | Given CN(C)CCN1CCOCC2(C1)CN(Cc1ccsc1)CCO2 (configuration not stated) , state its recorded Percent Effect.
Reply | -2.56

Ask | What value of measured Percent Effect is listed for CCCNCC1(O)CCCN(Cc2cccc(C)c2)C1=O (configuration not stated) ?
Reply | 1.57

Ask | Given the entry `COc1ccc(CNCc2ccnc(N3CCOCC3)c2)c(OC)c1` , report its measured Percent Effect.
Reply | -3.49

---

Percent Effect overview
# Measured On: Ubiquitin-activating enzyme e1, putative (Leishmania donovani (strain BPK282A1)) (UniProt E9BSI1)
# Sequence (whole entry): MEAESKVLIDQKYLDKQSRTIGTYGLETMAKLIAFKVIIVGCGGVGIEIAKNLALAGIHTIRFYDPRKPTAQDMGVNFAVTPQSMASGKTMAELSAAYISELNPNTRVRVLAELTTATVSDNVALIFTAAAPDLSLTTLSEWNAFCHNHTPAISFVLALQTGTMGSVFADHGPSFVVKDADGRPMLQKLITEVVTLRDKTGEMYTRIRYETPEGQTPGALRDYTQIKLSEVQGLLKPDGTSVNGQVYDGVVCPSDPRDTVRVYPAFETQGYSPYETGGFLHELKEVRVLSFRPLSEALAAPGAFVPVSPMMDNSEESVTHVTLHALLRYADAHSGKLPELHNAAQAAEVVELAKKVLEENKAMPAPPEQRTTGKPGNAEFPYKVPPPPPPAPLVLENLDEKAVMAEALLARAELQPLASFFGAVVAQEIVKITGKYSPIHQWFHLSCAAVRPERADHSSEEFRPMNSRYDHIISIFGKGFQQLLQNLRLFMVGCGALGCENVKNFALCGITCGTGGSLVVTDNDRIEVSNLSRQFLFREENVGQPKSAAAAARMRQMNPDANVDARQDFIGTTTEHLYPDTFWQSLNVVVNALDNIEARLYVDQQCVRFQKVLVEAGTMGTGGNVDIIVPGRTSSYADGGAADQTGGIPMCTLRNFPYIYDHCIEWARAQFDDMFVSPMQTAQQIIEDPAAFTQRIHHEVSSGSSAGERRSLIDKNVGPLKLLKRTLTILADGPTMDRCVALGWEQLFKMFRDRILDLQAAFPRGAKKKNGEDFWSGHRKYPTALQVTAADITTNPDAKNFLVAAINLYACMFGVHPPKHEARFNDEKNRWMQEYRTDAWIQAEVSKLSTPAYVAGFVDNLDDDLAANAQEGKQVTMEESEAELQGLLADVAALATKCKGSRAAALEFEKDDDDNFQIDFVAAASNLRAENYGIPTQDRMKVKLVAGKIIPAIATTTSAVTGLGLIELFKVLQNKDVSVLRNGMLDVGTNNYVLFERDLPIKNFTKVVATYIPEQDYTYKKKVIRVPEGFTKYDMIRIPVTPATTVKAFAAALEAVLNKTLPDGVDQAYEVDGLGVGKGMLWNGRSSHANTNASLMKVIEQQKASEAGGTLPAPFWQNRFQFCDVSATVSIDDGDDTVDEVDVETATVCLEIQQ
# Assay Details: Leishmania donovani Ubiquitin Activating Enzyme (LdE1)
# Format: functional
# Design: scale not given: direction of the effect not stated beside the values
# Stated Conditions: 30 µM
Potency and affinity values are given separately.
Remember to put the unit after the number in your answer.

Here is how some molecules turned out for Percent Effect.
Ask | // returns reported Percent Effect for input `Cn1cc(C(=O)NCc2cn3c(n2)CN(CC2CCOCC2)CC3)cn1`
Reply | 5.41%

Ask | What does the record list as Percent Effect for Cc1nc(C)n(CC2CCCN2CC(=O)Nc2ccnn2C(C)C)n1 (configuration not stated) ?
Reply | 18.4%

Ask | Which Percent Effect is reported for this molecule? CSc1ccc(CNC(c2ccccc2)c2nccn2C)cc1 (configuration not stated)
Reply | 21.6%

Ask | Give the measured Percent Effect of `O=C(N[C@@H]1CN(Cc2ccc3c(c2)OCO3)[C@@H]2CCCO[C@@H]21)C1CC1` .
Reply | 0%

Ask | Report Percent Effect for COc1ccccc1C1CNC(=O)c2nc(-c3ncc[nH]3)[nH]c2C1 (configuration not stated) please.
Reply | 16.2%

New cases:
Ask | What does the record list as Percent Effect for CCc1nccn1C1CCCN(C(=O)c2ccc3c(c2)OCO3)C1 (configuration not stated) ?
Reply | -2.6%

Ask | Would you mind telling me what Percent Effect value was observed for `Cc1oc(C)c(C(=O)NCc2ccccn2)c1C` ?
Reply | 10.5%

Ask | Could you share which Percent Effect value was measured for `Cc1nccc(CNC(=O)NCCOc2ccc(F)c(F)c2)n1` ?
Reply | 0%

Ask | Which measured Percent Effect value corresponds to CN(C)C(=O)CC1CC2(CCN(CC3CC3)CC2)c2cc(F)ccc21 (configuration not stated) ?
Reply | 5.41%

Ask | Record request: Percent Effect value, item `O=S(=O)(Cc1ccccc1F)NCCCN1CCCCC1`
Reply | 2.67%

Ask | Item under review: `Cc1cnc(CNC(=O)NCc2cccnc2N(C)C)s1` . Reported Percent Effect?
Reply | -2.6%

Ask | Quick check: Percent Effect of `Cc1nccn1-c1cc(CNC(=O)CCNC(=O)C2CCCC2)ccn1` ?
Reply | 21.1%

Ask | // query Percent Effect value for entry `O=C(CC1CC1)NCc1cn2c(n1)CN(C(=O)c1cccnc1)CC2`
Reply | 8%

Ask | Dear colleague, I am looking for the recorded Percent Effect of the following molecule: `Nc1ncc2c(n1)CN(C1CCCC1)C2=O`
Reply | 10.4%

Ask | Quick check: Percent Effect of `O=C(c1cscn1)N1C[C@@H]2C[C@@H](c3nnc(C4CC4)o3)O[C@@H]2C1` ?
Reply | 7.79%

Ask | Percent Effect for Cc1cnn(CC2CCCCN2Cc2noc(C3CC3)n2)c1 (configuration not stated) ?
Reply | 5.26%

Ask | Can you look up the measured Percent Effect of Cc1nc(C)n(CC2CCCN2CCCOc2ccc(F)cc2)n1 (configuration not stated) for me?
Reply | -15.2%

Ask | Which Percent Effect is listed for `CNc1cc(CNC(=O)c2ccccn2)nc(-c2ccncc2)n1` ?
Reply | 17.6%

Ask | # input molecule: CN1CCOC(CNCc2coc(-c3ccccc3)n2)C1 (configuration not stated) ; wanted: its Percent Effect
Reply | 12.7%

---

# Measured On: Chromo domain-containing protein 1 (Saccharomyces cerevisiae (strain ATCC 204508 / S288c) (Baker's yeast)) (UniProt P32657)
# Sequence (P32657 whole entry, the tested form may be a part): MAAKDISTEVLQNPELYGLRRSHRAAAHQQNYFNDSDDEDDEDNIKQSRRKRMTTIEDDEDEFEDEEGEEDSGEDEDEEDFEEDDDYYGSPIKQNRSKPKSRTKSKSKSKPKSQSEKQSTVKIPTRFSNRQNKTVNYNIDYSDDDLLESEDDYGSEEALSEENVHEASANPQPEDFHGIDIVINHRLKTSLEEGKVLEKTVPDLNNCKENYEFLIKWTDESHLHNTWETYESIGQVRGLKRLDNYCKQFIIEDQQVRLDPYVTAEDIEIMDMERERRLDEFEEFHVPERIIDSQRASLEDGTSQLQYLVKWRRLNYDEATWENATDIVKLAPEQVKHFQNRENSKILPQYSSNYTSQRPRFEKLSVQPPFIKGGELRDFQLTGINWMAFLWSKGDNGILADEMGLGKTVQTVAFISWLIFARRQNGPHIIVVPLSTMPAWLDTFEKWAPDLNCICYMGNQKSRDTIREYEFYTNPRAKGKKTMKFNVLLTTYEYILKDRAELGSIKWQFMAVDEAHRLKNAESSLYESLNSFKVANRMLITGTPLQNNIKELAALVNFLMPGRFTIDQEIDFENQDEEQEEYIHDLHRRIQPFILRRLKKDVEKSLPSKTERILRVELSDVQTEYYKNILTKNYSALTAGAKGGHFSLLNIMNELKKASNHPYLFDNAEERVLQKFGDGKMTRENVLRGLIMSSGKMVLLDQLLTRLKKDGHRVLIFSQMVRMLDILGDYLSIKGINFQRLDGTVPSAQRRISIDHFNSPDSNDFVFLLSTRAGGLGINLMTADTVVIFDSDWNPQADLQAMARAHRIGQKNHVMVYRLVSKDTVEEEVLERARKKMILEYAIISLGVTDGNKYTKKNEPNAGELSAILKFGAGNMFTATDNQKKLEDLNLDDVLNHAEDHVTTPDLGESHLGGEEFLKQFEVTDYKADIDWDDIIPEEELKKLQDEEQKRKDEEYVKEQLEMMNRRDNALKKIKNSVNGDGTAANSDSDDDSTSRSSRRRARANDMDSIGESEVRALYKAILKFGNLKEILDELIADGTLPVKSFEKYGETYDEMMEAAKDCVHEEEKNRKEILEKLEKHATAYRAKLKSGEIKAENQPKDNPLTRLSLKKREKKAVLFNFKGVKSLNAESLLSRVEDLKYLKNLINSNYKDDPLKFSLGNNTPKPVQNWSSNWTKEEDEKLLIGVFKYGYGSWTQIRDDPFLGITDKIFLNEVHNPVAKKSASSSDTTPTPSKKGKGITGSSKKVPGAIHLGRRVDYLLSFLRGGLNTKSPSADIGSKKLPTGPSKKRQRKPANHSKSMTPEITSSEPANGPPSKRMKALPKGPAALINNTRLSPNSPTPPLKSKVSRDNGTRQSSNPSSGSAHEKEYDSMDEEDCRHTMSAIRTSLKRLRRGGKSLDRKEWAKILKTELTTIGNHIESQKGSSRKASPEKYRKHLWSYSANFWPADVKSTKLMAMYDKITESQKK
# Assay Details: ScCHD-1 Enzyme Inhibition Assay; note: in the data most compounds retested in dose-response had high values
# Type: functional
# Parameters: scale not given: direction of the effect not stated beside the values
# Stated Conditions: 30 µM
Parameter Measured: Percent Effect (%)
Report only the number, with the unit % understood.

Guide cases for Percent Effect, answers given:
Ask | Consider the compound shown here: O=C(NCCCOCC1CCCO1)c1cccnc1N1CCCC1 (configuration not stated) What is its recorded Percent Effect?
Reply | 6.21

Ask | Quick one: Percent Effect of `COc1cc(C)nc(N2CCN(C(=O)CCn3cc(C)cn3)CC2)n1` ?
Reply | -2.89

Ask | What value of measured Percent Effect is listed for COc1c(C)cnc(CN2CCC(N(C)C(C)C(N)=O)CC2)c1C (configuration not stated) ?
Reply | -7.36

Ask | # Percent Effect lookup, item COCCN1CCC(CNC(=O)C2(c3cc(C)cc(C)c3)CCC2)C1 (configuration not stated)
Reply | 2.35

Ask | GET /values?readout=Percent Effect&item= `CSCc1cccc(S(=O)(=O)NCCCN2CCOCC2)c1`
Reply | -3.9

Ask | Percent Effect lookup needed for `CC(C)OCc1ncn2c1CN(Cc1ccc(F)cc1)CCC2` , thanks.
Reply | -0.808

Ask | State the recorded Percent Effect for this entry: `CN(C)C(=O)CN1C[C@@H]2CC[C@H](C1)N(Cc1cccc(Cl)c1Cl)C2`
Reply | 0.27

Ask | What does the record list as Percent Effect for `COCCCN(CCOC)C(=O)Nc1ccc(C)cc1C` ?
Reply | 6.01

More entries:
Ask | So what's the measured Percent Effect for this one? `CCc1noc(CN2CCCN(C(N)=O)CC2)n1`
Reply | -6.21

Ask | What does the record list as Percent Effect for `Cc1ccc(C(=O)NCCCNS(C)(=O)=O)c(=O)[nH]1` ?
Reply | -7.91

Ask | For the compound shown here, O=C(NCC(Cc1cccc(F)c1)N1CCCC1=O)c1ccccc1 (configuration not stated) , give the reported Percent Effect.
Reply | -2.23

Ask | // Percent Effect lookup, key: CCN1CC(C(=O)NCc2ccccc2-n2cccn2)CC1=O (configuration not stated)
Reply | -8.96
